Recorded values, source BindingDB's records for doi:10.1016/j.bmcl.2005.03.034.

measured on: Vascular endothelial growth factor receptor 2 (Homo sapiens, UniProt P35968)
Sequence (P35968 whole entry): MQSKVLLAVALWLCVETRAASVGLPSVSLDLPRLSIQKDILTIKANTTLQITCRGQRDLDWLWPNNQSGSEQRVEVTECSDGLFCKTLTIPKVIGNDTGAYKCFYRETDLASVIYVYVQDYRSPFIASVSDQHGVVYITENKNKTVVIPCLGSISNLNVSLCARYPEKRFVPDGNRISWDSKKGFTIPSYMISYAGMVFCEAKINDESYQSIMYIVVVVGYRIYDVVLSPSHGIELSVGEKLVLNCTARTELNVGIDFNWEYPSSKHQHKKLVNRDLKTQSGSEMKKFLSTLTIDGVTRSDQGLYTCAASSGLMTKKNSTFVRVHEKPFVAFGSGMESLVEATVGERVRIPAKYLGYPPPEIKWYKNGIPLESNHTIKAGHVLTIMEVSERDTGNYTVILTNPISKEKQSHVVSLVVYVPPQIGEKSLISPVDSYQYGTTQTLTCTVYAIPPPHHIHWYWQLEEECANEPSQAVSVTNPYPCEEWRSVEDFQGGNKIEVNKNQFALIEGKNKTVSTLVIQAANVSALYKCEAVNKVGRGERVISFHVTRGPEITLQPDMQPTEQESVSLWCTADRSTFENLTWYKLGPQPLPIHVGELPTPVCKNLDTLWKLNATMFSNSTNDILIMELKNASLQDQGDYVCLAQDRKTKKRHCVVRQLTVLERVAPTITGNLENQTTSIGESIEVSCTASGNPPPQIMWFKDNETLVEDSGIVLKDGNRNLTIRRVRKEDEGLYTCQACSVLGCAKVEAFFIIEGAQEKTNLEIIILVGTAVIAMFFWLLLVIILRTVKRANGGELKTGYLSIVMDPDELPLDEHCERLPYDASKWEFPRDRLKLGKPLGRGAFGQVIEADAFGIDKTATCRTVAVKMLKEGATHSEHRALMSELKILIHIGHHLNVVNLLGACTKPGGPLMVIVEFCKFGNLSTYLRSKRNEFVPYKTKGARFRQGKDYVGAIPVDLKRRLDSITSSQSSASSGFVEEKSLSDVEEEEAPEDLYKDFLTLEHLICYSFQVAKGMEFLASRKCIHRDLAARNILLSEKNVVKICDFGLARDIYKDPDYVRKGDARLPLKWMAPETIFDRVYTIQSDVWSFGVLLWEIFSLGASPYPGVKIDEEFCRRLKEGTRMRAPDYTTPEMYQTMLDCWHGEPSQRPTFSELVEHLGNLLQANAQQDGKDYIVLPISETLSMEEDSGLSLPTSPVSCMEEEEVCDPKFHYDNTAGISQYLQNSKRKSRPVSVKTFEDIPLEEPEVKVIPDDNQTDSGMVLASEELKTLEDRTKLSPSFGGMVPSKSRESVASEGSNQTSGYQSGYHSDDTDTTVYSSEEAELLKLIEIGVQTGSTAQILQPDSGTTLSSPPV
parameter measured: IC50 (nM)

CN(c1ccc(NC(=O)Nc2ccccc2)cc1)c1ccnc(Nc2cccc(S(N)(=O)=O)c2)n1 5

1. CN(c1ccc(NC(=S)Nc2ccccc2)cc1)c1ccnc(Nc2cccc(CS(C)(=O)=O)c2)n1
2. CN(c1ccc(NC(=O)Cc2ccccc2)cc1)c1ccnc(Nc2cccc(CS(C)(=O)=O)c2)n1
Ask: Between these two entries, 1 and 2 , state which has the higher IC50. # respond with the chosen item's label
Reply: 2
(2: 176 nM, 1: 117 nM)
